Cited source: the supplement of paper PMC6089552

# System: A673/TR/shEF
# test_method_notes: cell viability (LOESS-normalised, relative to median of negative controls) (log2 ratio); higher = more viable cells (less compound effect), active = hit call of the paper (over 3 MAD below the median)
# run_conditions: 2.5 µM; library screen: screen1; EWS-FLI1 expression: high (no doxycycline); treatment time: 72 h
About 300 (9.4%) of roughly 3,200 compounds showed activity. The full list was thinned out, with actives kept by preference.
// boundary case: cell viability (log2) equal to 0.1 maps to No; strictly smaller maps to Yes

Worked set:
{"compound": "O=C(NC(C(=O)N1CCCCC1)=C1CCCCC1)c1ccccc1", "category_label": "Yes"}
{"compound": "CC1(C)CC2C1CCC1(CBr)CCC3C(CC(=O)O)C(=O)OC32C1 (stereo not drawn)", "category_label": "No"}
{"compound": "Cc1c(NC(=O)Nc2ccc3ccccc3c2)c(=O)n(-c2ccccc2)n1C", "category_label": "Yes"}

## Task Answer whether the compound C[C@H](CCC(=O)O)[C@H]1CC[C@H]2[C@@H]3C[C@H](O)C4C[C@H](O)CC[C@]4(C)[C@H]3CC[C@]12C (stereo partly drawn) has cell viability (log2) strictly less than 0.1
## Result Yes

## Task Proceed to O=C(Nc1ccccc1Cl)C1c2ccccc2Oc2ccccc21
## Result No

## Task Proceed to C=C1C(=O)O[C@@H]2C[C@@]3(C)CCC[C@H](C)C3=C[C@H]12
## Result No

## Task Proceed to CC1OC(OC2C(O)COC(OC3C(C)OC(OC4C(OC(=O)C56CCC(C)(C)CC5C5=CCC7C8(C)CCC(OC9OC(CO)C(O)C(O)C9O)C(C)(C)C8CCC7(C)C5(C)CC6O)OCC(O)C4O)C(O)C3O)C2O)C(O)C(O)C1O (stereo not drawn)
## Result Yes

## Task Proceed to CC1=CC(=O)CC(C)(C)[C@@]1(O)/C=C/C(C)=C\C(=O)O
## Result No

## Task Proceed to COc1cc(OC)c(C2NC(=S)NC(C)=C2C(=O)Nc2cccc(Cl)c2)cc1OC (stereo not drawn)
## Result Yes

## Task Proceed to CN(C)CCCN1c2ccccc2Sc2ccc(C(F)(F)F)cc21
## Result Yes

## Task Proceed to COC(=O)[C@H]1[C@H]2C[C@H]3c4[nH]c5cc(OC)ccc5c4CCN3C[C@H]2C[C@@H](OC(=O)c2cc(OC)c(OC)c(OC)c2)[C@@H]1OC
## Result No

* * *

# Tested on: A673/TR/shEF
# test_method_notes: cell viability (LOESS-normalised, relative to median of negative controls) (log2 ratio); higher = more viable cells (less compound effect), active = hit call of the paper (over 3 MAD below the median)
# run_conditions: 0.25 µM; library screen: screen1; EWS-FLI1 expression: low (doxycycline-induced shRNA knockdown); treatment time: 72 h
In all, about 3,200 compounds went through this assay and about 300 (9.4%) showed activity. This is one part of a sample in which actives are shown more often than they occur.
measurement_label: cell viability (log2)
One number for each entry.

{"molecule": "COc1ccc(-c2cc(=O)c3c(O)cc(O[C@@H]4O[C@H](CO[C@@H]5O[C@@H](C)[C@H](O)[C@@H](O)[C@H]5O)[C@@H](O)[C@H](O)[C@H]4O)cc3o2)cc1", "cell viability (log2)": 0.0696}
{"molecule": "COc1ccc(-c2cc(=O)c3c(O)cc(O[C@@H]4O[C@H](CO[C@@H]5O[C@@H](C)[C@H](O)[C@@H](O)[C@H]5O)[C@@H](O)[C@H](O)[C@H]4O)cc3o2)cc1O", "cell viability (log2)": 0.0382}
{"molecule": "COc1ccc(-c2cc(=O)c3c(O)c(OC)c(OC4OC(COC5OC(C)C(O)C(O)C5O)C(O)C(O)C4O)cc3o2)cc1 (centres undefined)", "cell viability (log2)": 0.0838}

## Task # get_value(readout='cell viability (log2)', item= COc1cc(O)c2c(=O)cc(-c3ccc(OC)c(O)c3)oc2c1 )
## Result 0.00819

* * *

# System: A673/TR/shEF
# test_method_notes: cell viability (LOESS-normalised, relative to median of negative controls) (log2 ratio); higher = more viable cells (less compound effect), active = hit call of the paper (over 3 MAD below the median)
# run_conditions: 0.25 µM; library screen: screen2; EWS-FLI1 expression: low (doxycycline-induced shRNA knockdown); treatment time: 72 h
Hit rate of the full screen: of about 3,200 compounds, about 300 (9.4%) showed activity. The list comes from a sample in which actives are over-represented; it also holds close analogues and randomly drawn compounds.
// boundary case: cell viability (log2) equal to 0.06 maps to f; strictly smaller maps to t

{"molecule": "COc1cc2ncnc(Nc3ccc(O)cc3)c2cc1OC", "category_label": "t"}

## Task Answer whether the molecule NC(Cc1ccc(F)cc1)C(=O)O (stereo unspecified) has cell viability (log2) strictly less than 0.06
## Result f

## Task Proceed to O=C(O)c1cc([N+](=O)[O-])ccc1NCCCc1ccccc1
## Result f

## Task Proceed to CN(Cc1cnc2nc(N)nc(N)c2n1)c1ccc(C(=O)N[C@H](CCC(=O)O)C(=O)O)cc1
## Result f

## Task Proceed to CCCCCN(CCCCC)C(=O)C(CCC(=O)O)NC(=O)c1ccc(Cl)c(Cl)c1 (stereo unspecified)
## Result f

## Task Proceed to Nc1nc(N)c2nc(CNc3ccc(C(=O)N[C@@H](CCC(=O)O)C(=O)O)cc3)cnc2n1
## Result f

## Task Proceed to N#C/C(=C\c1ccc(O)c(O)c1)C(=O)NCc1ccccc1
## Result f

## Task Proceed to N#C/C(=C\c1ccc(O)c(O)c1)C(=O)Nc1ccccc1
## Result t

## Task Proceed to CCN1CCC[C@H]1CNC(=O)c1c(OC)ccc(I)c1O
## Result f

## Task Proceed to C[C@H](NC(=O)/C(C#N)=C/c1ccc(O)c(O)c1)c1ccccc1
## Result f

## Task Proceed to O=C(O)Cc1ccc(O)c(O)c1
## Result t

* * *

# Tested on: A673/TR/shEF
# test_method_notes: cell viability (LOESS-normalised, relative to median of negative controls) (log2 ratio); higher = more viable cells (less compound effect), active = hit call of the paper (over 3 MAD below the median)
# run_conditions: 0.308 µM; library screen: screen3; EWS-FLI1 expression: high (no doxycycline); treatment time: 72 h
Among all 3,200 compounds or so, about 300 (9.4%) showed activity. The sample as a whole holds a higher share of actives than the screen did.
Respond only with the outcome that fits, drawn from active, inactive

Worked set:
{"compound": "[Cl][Pt+2][Cl].[NH2-].[NH2-]", "study_system": "A673/TR/shEF", "category_label": "inactive"}
{"compound": "Cc1ccc(NC(=O)c2ccc(CN3CCN(C)CC3)cc2)cc1Nc1nc(-c2cccnc2)cs1", "study_system": "A673/TR/shEF", "category_label": "inactive"}
{"compound": "CN1CCN(CCOc2cc(OC3CCOCC3)c3c(Nc4c(Cl)ccc5c4OCO5)ncnc3c2)CC1", "study_system": "A673/TR/shEF", "category_label": "inactive"}
{"compound": "COc1cccc2c1C(=O)c1c(O)c3c(c(O)c1C2=O)C[C@@](O)(C(=O)CO)C[C@@H]3O[C@H]1C[C@H](N)[C@@H](O)[C@H](C)O1", "study_system": "A673/TR/shEF", "category_label": "active"}
{"compound": "CCC(C)[C@H]1O[C@]2(CC[C@@H]1C)CC1C[C@@H](C/C=C(\\C)[C@@H](O[C@H]3C[C@H](OC)[C@@H](OC4C[C@H](OC)[C@@H](O)[C@H](C)O4)[C@H](C)O3)[C@@H](C)/C=C/C=C3\\CO[C@@H]4[C@H](O)C(C)=C[C@@H](C(=O)O1)[C@]34O)O2.CO[C@H]1CC(O[C@H]2[C@H](C)O[C@@H](O[C@@H]3/C(C)=C/C[C@@H]4CC(C[C@]5(CC[C@H](C)[C@@H](C(C)C)O5)O4)OC(=O)[C@@H]4C=C(C)[C@@H](O)[C@H]5OC/C(=C\\C=C\\[C@@H]3C)[C@]54O)C[C@@H]2OC)O[C@@H](C)[C@@H]1O (stereo partly drawn)", "study_system": "A673/TR/shEF", "category_label": "inactive"}
{"compound": "Cc1cn(-c2cc(NC(=O)c3ccc(C)c(Nc4nccc(-c5cccnc5)n4)c3)cc(C(F)(F)F)c2)cn1", "study_system": "A673/TR/shEF", "category_label": "inactive"}
{"compound": "Cc1cc(Nc2cc(CN3CCOCC3)c3nc(C)c(Cc4ccc(Cl)cc4F)n3n2)n[nH]1", "study_system": "A673/TR/shEF", "category_label": "inactive"}

Next compound, please.
## Task Please let me know the test result on file for Cc1ccncc1Nc1ncccc1C(=O)Nc1ccc(C2(C#N)CCCC2)cc1 .
## Result inactive
